- Tested on: C. kefyr
- protocolText: Broth microdilution MIC/MFC, clinical isolate
- Type: cell-based
- assayContext: Kluyveromyces marxianus; C. kefyr clinical strain; read-out: MIC
- Method: In the study of antifungal activity of the compounds 3a–3j, 15 clinical strains of different species of yeasts from Candida species, namely C. albicans, C. dubliniensis C. famata, C. inconspicua, C. krusei, C. tropicalis, C. glabrata, C. lambica, C. kefyr, C. lusitaniae, C. parapsilosis, C. guilliermondii, C. lusitaniae, C. pulcherrima and C. sake were also used. […] MFC was determined by removing the culture using for MIC determinations from each well and spotting onto appropriate agar medium. […]
metricName: MIC (µg/mL)

MIC for Clc1ccc(-c2csc(N/N=C/C3CC3)n2)cc1 [Compound 3c] ?
31.2

Field request: MIC | item: COc1ccc(-c2csc(N/N=C/C3CC3)n2)cc1 [Compound 3f]
1.95

Given the compound [N-]=[N+]=Nc1ccc(-c2csc(N/N=C/C3CC3)n2)cc1 [Compound 3i] , what is its reported MIC?
7.81

(P) O=[N+]([O-])c1ccc(-c2csc(N/N=C/C3CC3)n2)cc1 [Compound 3j]
(Q) Cc1ccc(-c2csc(N/N=C/C3CC3)n2)cc1 [Compound 3d]
Lower MIC: P or Q ? // caller expects the label of the chosen entry
Q
(Q: 1.95 µg/mL, P: 125 µg/mL)

----------
- Test system: C. guilliermondii
- protocolText: Broth microdilution MIC/MFC, clinical isolate
- Assay type: cell-based
- assayContext: Meyerozyma guilliermondii; C. guilliermondii clinical strain; read-out: MIC
metricName: MIC (µg/mL)

Dear colleague, I am looking for the recorded MIC of the following molecule: "Fc1ccc(-c2csc(N/N=C/C3CC3)n2)cc1"
1.95

Using the record for "Cc1ccc(-c2csc(N/N=C/C3CC3)n2)cc1" , report its MIC.
0.48

Field request: MIC | item: "COc1ccc(-c2csc(N/N=C/C3CC3)n2)cc1"
0.48

Look up MIC: "Brc1ccc(-c2csc(N/N=C/C3CC3)n2)cc1"
0.12

Give its MIC value. Item: "Clc1ccc(-c2csc(N/N=C/C3CC3)n2)cc1"
0.24

(1) O=[N+]([O-])c1ccc(-c2csc(N/N=C/C3CC3)n2)cc1
(2) N#Cc1ccc(-c2csc(N/N=C/C3CC3)n2)cc1
(3) Fc1ccc(-c2csc(N/N=C/C3CC3)n2)c(F)c1
(4) [N-]=[N+]=Nc1ccc(-c2csc(N/N=C/C3CC3)n2)cc1
Put the items in order so that reported MIC rises from first to last. Dear reader, please state the labels in the requested order.
1, 2, 4, 3

----------
- System: C. glabrata
- protocolText: Broth microdilution MIC/MFC, clinical isolate
- Format: cell-based
- assayContext: Nakaseomyces glabratus; C. glabrata clinical strain; read-out: MIC
metricName: MIC (µg/mL)

Give C. glabrata MIC for [N-]=[N+]=Nc1ccc(-c2csc(N/N=C/C3CC3)n2)cc1 [Compound 3i]
31.2

What MIC appears in the records for this compound with C. glabrata? O=[N+]([O-])c1ccc(-c2csc(N/N=C/C3CC3)n2)cc1 [Compound 3j]
125

# returns recorded MIC (system: C. glabrata) for COc1ccc(-c2csc(N/N=C/C3CC3)n2)cc1 [Compound 3f]
31.2

What reported MIC corresponds to Clc1ccc(-c2csc(N/N=C/C3CC3)n2)cc1 [Compound 3c] on C. glabrata?
500

// fetch C. glabrata MIC for Brc1ccc(-c2csc(N/N=C/C3CC3)n2)cc1 [Compound 3b]
62.5

(I) N#Cc1ccc(-c2csc(N/N=C/C3CC3)n2)cc1 [Compound 3h]
(II) Fc1ccc(-c2csc(N/N=C/C3CC3)n2)c(F)c1 [Compound 3g]
Please choose the item with the lower MIC value from this pair: I and II API: response body contains the label of the selected item.
II
(II: 15.6 µg/mL, I: 125 µg/mL)

----------
- Test system: Candida krusei ATCC 14243
- protocolText: Broth microdilution MIC/MFC, reference strain
- Assay type: cell-based
- assayContext: Pichia kudriavzevii, ATCC14243; C. krusei ATCC 14243; read-out: MFC
- Experimental: […] In the study of antifungal activity of the compounds 3a–3j, 15 clinical strains of different species of yeasts from Candida species, namely C. albicans, C. dubliniensis C. famata, C. inconspicua, C. krusei, C. tropicalis, C. glabrata, C. lambica, C. kefyr, C. lusitaniae, C. parapsilosis, C. guilliermondii, C. lusitaniae, C. pulcherrima and C. sake were also used. […] MFC was determined by removing the culture using for MIC determinations from each well and spotting onto appropriate agar medium. […]
The following compounds are shown together with reported MFC values.
Field: numeric (µg/mL). Do not append units.

GET /values?readout=MFC&item= "Clc1ccc(-c2csc(N/N=C/C3CC3)n2)cc1"
0.98

Recorded MFC of "O=[N+]([O-])c1ccc(-c2csc(N/N=C/C3CC3)n2)cc1" , please.
3.91

Look at this compound and give its reported MFC. "COc1ccc(-c2csc(N/N=C/C3CC3)n2)cc1"
0.98

Next up:
Tell me the measured MFC of "[N-]=[N+]=Nc1ccc(-c2csc(N/N=C/C3CC3)n2)cc1" , please.
1.95

----------
- Test system: C. kefyr
- protocolText: Broth microdilution MIC/MFC, clinical isolate
- Format: cell-based
- assayContext: Kluyveromyces marxianus; C. kefyr clinical strain; read-out: MIC
metricName: MIC (µg/mL)

Param item = Fc1ccc(-c2csc(N/N=C/C3CC3)n2)c(F)c1 [Compound 3g] ; retrieve measured MIC.
31.2

(P) Brc1ccc(-c2csc(N/N=C/C3CC3)n2)cc1 [Compound 3b]
(Q) N#Cc1ccc(-c2csc(N/N=C/C3CC3)n2)cc1 [Compound 3h]
When their MIC values are compared, which is larger, P or Q ? # reply format: chosen label
P

----------
- Test system: L929 and VERO cell lines
- protocolText: MTT cytotoxicity assay
- Assay type: cell-based, mouse; African green monkey
- assayContext: 24 h, higher concentrations not reached due to limited solubility
metricName: highest possible non-cytotoxic concentration (µg/mL)
# unit: µg/mL | format: bare number

Would you please look over these solved cases?
Which highest possible non-cytotoxic concentration is reported for this compound? [N-]=[N+]=Nc1ccc(-c2csc(N/N=C/C3CC3)n2)cc1 [Compound 3i]
15.63

Suppose we examine the compound Brc1ccc(-c2csc(N/N=C/C3CC3)n2)cc1 [Compound 3b] ; what highest possible non-cytotoxic concentration value has been reported?
7.81

Fill blank: measured highest possible non-cytotoxic concentration of the compound N#Cc1ccc(-c2csc(N/N=C/C3CC3)n2)cc1 [Compound 3h] is ____.
31.25

Query (compound): COc1ccc(-c2csc(N/N=C/C3CC3)n2)cc1 [Compound 3f] ; field requested: highest possible non-cytotoxic concentration
31.25

I am curious: what highest possible non-cytotoxic concentration value has been reported for FC(F)(F)c1ccc(-c2csc(N/N=C/C3CC3)n2)cc1 [Compound 3e] ?
3.91

Recorded highest possible non-cytotoxic concentration of Fc1ccc(-c2csc(N/N=C/C3CC3)n2)c(F)c1 [Compound 3g] , please.
15.63

What value of highest possible non-cytotoxic concentration has been recorded for this entry: Fc1ccc(-c2csc(N/N=C/C3CC3)n2)cc1 [Compound 3a]
31.25

highest possible non-cytotoxic concentration lookup needed for Clc1ccc(-c2csc(N/N=C/C3CC3)n2)cc1 [Compound 3c] , thanks.
7.81

Which highest possible non-cytotoxic concentration is listed for O=[N+]([O-])c1ccc(-c2csc(N/N=C/C3CC3)n2)cc1 [Compound 3j] ?
31.25

Continuing:
Given the compound Cc1ccc(-c2csc(N/N=C/C3CC3)n2)cc1 [Compound 3d] , what is its reported highest possible non-cytotoxic concentration?
31.25

----------
- Tested on: C. albicans
- protocolText: Broth microdilution MIC/MFC, clinical isolate
- Format: cell-based
- assayContext: Candida albicans; C. albicans clinical strain; read-out: MFC
metricName: MFC (µg/mL)
Express it in µg/mL; write the number only.

# count of solved cases: 3
Reported MFC, molecule "Cc1ccc(-c2csc(N/N=C/C3CC3)n2)cc1" : ____
0.24

Item "N#Cc1ccc(-c2csc(N/N=C/C3CC3)n2)cc1" has what recorded MFC?
15.6

Request the reported MFC associated with "Brc1ccc(-c2csc(N/N=C/C3CC3)n2)cc1"
1.95

Shifting focus to the molecule that follows.
Endpoint output: MFC of "Fc1ccc(-c2csc(N/N=C/C3CC3)n2)c(F)c1" . Value?
1.95

----------
- Test system: C. krusei
- protocolText: Broth microdilution MIC/MFC, clinical isolate
- Type: cell-based
- assayContext: Pichia kudriavzevii; C. krusei clinical strain; read-out: MIC
metricName: MIC (µg/mL)

Look at this compound and give its reported MIC. "COc1ccc(-c2csc(N/N=C/C3CC3)n2)cc1"
0.015

Which MIC value is on record for "Brc1ccc(-c2csc(N/N=C/C3CC3)n2)cc1" ?
0.24

Query: MIC; subject: "Cc1ccc(-c2csc(N/N=C/C3CC3)n2)cc1"
0.24

(1) O=[N+]([O-])c1ccc(-c2csc(N/N=C/C3CC3)n2)cc1
(2) Fc1ccc(-c2csc(N/N=C/C3CC3)n2)cc1
(3) N#Cc1ccc(-c2csc(N/N=C/C3CC3)n2)cc1
(4) Clc1ccc(-c2csc(N/N=C/C3CC3)n2)cc1
Falling order of MIC, please. Provide your answer as the labels ordered per the instruction.
2, 3, 4, 1

(I) Fc1ccc(-c2csc(N/N=C/C3CC3)n2)c(F)c1
(II) [N-]=[N+]=Nc1ccc(-c2csc(N/N=C/C3CC3)n2)cc1
Returns: the label, I or II , whose recorded MIC is the lower number. Pick one; state its label.
I
(I: 0.03 µg/mL, II: 0.98 µg/mL)

Value source: paper PMC6133161
